test system: HCT-15 colon; experiment: NCI tumour cell line growth inhibition, 48 h; in the data active = GI50 below about 0.43 µM; inactive = the rest
Outcomes: 1 (yes) for active, 0 (no) for inactive

compound: N#C[S-].[Nd+3].c1ccc(-c2ccccn2)nc1.c1ccc(-c2ccccn2)nc1.c1ccc(-c2ccccn2)nc1
cat: 0 (no)
--
compound: O=C(N/N=C/c1ccc([N+](=O)[O-])cc1)c1ccc2nc(-c3ccc(Cl)cc3)[nH]c2c1
cat: 0 (no)
--
compound: Cn1cc(-c2cnc3ccc4ccc(CS(=O)(=O)NCc5ccccn5)cc4c(=O)c3c2)cn1
cat: 0 (no)
--
compound: CC(=O)O/N=C1/C(c2c(O)[nH]c3cc(Br)ccc23)=Nc2ccccc21
cat: 0 (no)
--
compound: COc1cccc2c1C(=O)c1c(O)c3c(c(O)c1C2=O)C[C@@](O)(C(=O)CO)C[C@@H]3OC1C[C@H](N)[C@H](O)[C@H](C)O1 (stereo partly drawn)
cat: 0 (no)
--
compound: CO[C@@H]1/C=C(C)/C=C/[C@@H](C)/C=C(\C)C(=O)OC(/C(C)=C/C=C(\C)CNC(=O)[C@H](CO)NC=O)[C@@H](C)/C=C/C=C/[C@H](OC)CC/C=C(C)/C=C/C1 (stereo partly drawn)
cat: 1 (yes)
--
compound: c1cn2cc(-c3ccc4cn[nH]c4c3)nc(Nc3ccc(N4CCOCC4)cc3)c2n1
cat: 0 (no)
--
compound: O=c1cc(-c2ccccc2)[nH]n1-c1nc2ccccc2[nH]1
cat: 0 (no)

* * *

system: K-562 leukemia; experiment: NCI tumour cell line growth inhibition, 48 h; in the data active = GI50 below about 0.43 µM; inactive = the rest
Outcomes: TRUE = active, FALSE = inactive

molecule: COc1cc(/C=C2\CN(C)C/C(=C\c3cc(CN4CCCCC4)c(O)c(OC)c3)C2=O)cc(CN2CCCCC2)c1O
cat: FALSE
--
molecule: Cc1ccc(SC2=CC(=O)c3nc4ccccc4c4ccnc2c34)cc1
cat: FALSE
--
molecule: CO[C@@H]1CC(=O)C2(CC(=O)O[C@@H]2/C=C(\C)CCC=C(C)C)C[C@@H]1O (some centres undefined)
cat: FALSE
--
molecule: COc1ccc2c(c1)C(=O)/C(=C/c1ncc([N+](=O)[O-])n1C)O2
cat: TRUE
--
molecule: C=C1C(=O)O[C@H]2[C@H]1CC/C(COC(=O)CSCC(=O)OC/C1=C/CC[C@@]3(C)O[C@H]3[C@H]3OC(=O)C(=C)[C@@H]3CC1)=C\CC[C@@]1(C)O[C@@H]21
cat: FALSE
--
molecule: C=CCC(N[C@H](CO)c1ccccc1)c1cn(C(=O)OCC)c2ccccc12 (some centres undefined)
cat: FALSE
--
molecule: CCN(CCCl)CCCNc1c2ccccc2nc2ccc(OC)cc12
cat: FALSE
--
molecule: S=C1Nc2ccc(Cl)cc2C2(c3ccccc3)N3CCN=C3NN12 (centres undefined)
cat: FALSE
--
molecule: C=CCC1(O)c2cccc(NCCO)c2C(=O)c2c(NCCO)cccc21
cat: FALSE

* * *

tested on: MDA-MB-435; assay: NCI tumour cell line growth inhibition, 48 h
*1 amine or outer side, *2 acyl side, *3 side chain or, on linkers, in order; H or OH if unused. Where a SMILES comes first, the peptide text is derived from it. Bridges are numbered along the chain shown (N, C = ends). Roman numbers before positions name the chains, in order. [ ]: non-standard residue; d: D form. Actinocin(9to1) = Cc1c2oc3c(C)ccc(C(=O)[*:1])c3nc-2c(C(=O)[*:2])c(N)c1=O; NMeV = CN[CH](C(=O)O)C(C)C; Sar = CNCC(=O)O
Use criterion met when the recorded TGI is no lower than 20 µM; use criterion not met when it is lower.

compound: Cc1cc(C)c(O)c(CN(C)Cc2cc(Cl)cc(Cl)c2O)c1
cat: criterion met
//
compound: Cn1cc(-c2cnc3ccc4ccc(CS(=O)(=O)NCc5ccccn5)cc4c(=O)c3c2)cn1
cat: criterion met
//
compound: COc1cc(CC2c3cc(OC)c(OC)cc3CCN2C)c(Oc2cc3c(cc2OC)-c2c(O)c(OC)cc4c2C(C3)N(C)CC4)cc1OC (stereo unspecified)
cat: criterion met
//
compound: O=c1[nH]cnc2[nH]ncc12
cat: criterion met
//
compound: COc1ccc(-n2c3c(c4c(CN5CCOCC5)c(O)ccc42)CCc2ccccc2C3=O)cc1
cat: criterion met
//
compound: Fc1ccc(N=NN2CCCC2)cc1
cat: criterion met
//
compound: Cc1ccc(C(C2C(=O)N(C)C(=O)N(C)C2=O)C(F)(F)C(=O)N(C)C)cc1 (stereo unspecified)
cat: criterion met
//
compound: O=C(Nc1ccccc1O)c1ccc(Oc2cccc(C(=O)Nc3ccccc3O)c2)cc1
cat: criterion not met
//
compound: O=C(NC1CCN(Cc2ccccc2)CC1)c1cc2nc(-c3ccc(Cl)s3)cc(C(F)(F)F)n2n1
cat: criterion met
//
compound: CCOC(=O)/C=C/C(C(=O)/C=C/c1ccc(O)c(OC)c1)=C(O)\C=C\c1ccc(O)c(OC)c1
cat: criterion not met
//
compound: O=c1c2cc(I)ccc2nc(Sc2ncccc2[N+](=O)[O-])n1Cc1ccccc1
cat: criterion met
//
compound: N#CC1=C(N)NC(=O)NC12Nc1ccccc1S2 (stereo unspecified)
cat: criterion met
//
compound: C=C1C(=O)O[C@H]2[C@H]1CC/C(COC(=O)CSCC(=O)OC/C1=C/CC[C@@]3(C)O[C@H]3[C@H]3OC(=O)C(=C)[C@@H]3CC1)=C\CC[C@@]1(C)O[C@@H]21
cat: criterion not met
//
compound: C#CC(F)(F)[C@]1(O)CC[C@H]2[C@@H]3CCC4=CC(=O)CCC4=C3[C@@H](c3ccc(C(C)=O)cc3)C[C@@]21C
cat: criterion met
//
compound: COP(=O)(OC)C(Cc1c[nH]c2ccccc12)NC(=O)OCc1ccccc1 (stereo unspecified)
cat: criterion met
//
compound: CCOC(=O)/C=C(\C(=O)OCC)n1ccc(N)nc1=O
cat: criterion met
//
compound: CC(C)(C)C1(COC(=O)c2ccc(N)cc2)COC1
cat: criterion met
//
compound: COc1cc(/C=C2\N=C(c3ccccc3)N(c3nc4c(OC)ccc(OC)c4s3)C2=O)cc(OC)c1OC
cat: criterion met
//
compound: Cc1cc(=O)oc2cc(OCc3c(F)cccc3Cl)ccc12
cat: criterion not met
//
compound: Cc1c2oc3c(C)ccc(C(=O)NC4C(=O)NC(C(C)O)C(=O)N5CCCC5C(=O)N(C)CC(=O)N(C)C(C(C)C)C(=O)OC4C)c3nc-2c(C(=O)NC2C(=O)NC(C(C)O)C(=O)N3CCCC3C(=O)N(C)CC(=O)N(C)C(C(C)C)C(=O)OC2C)c(N)c1=O (stereo unspecified) (I: TTP[Sar][NMeV] / II: TTP[Sar][NMeV]; ester I:1-I:C, II:1-II:C; linker I:N-II:N via Actinocin(9to1); configuration not given here)
cat: criterion not met
//
compound: [N-]=[N+]=NCc1cccc(Nc2cc(=O)[nH]c(=O)[nH]2)c1
cat: criterion met
//
compound: OC1(c2cc3ccccc3s2)CCCCC1
cat: criterion met
//
compound: Oc1ccc(SCc2cc(O)c(O)c(O)c2)cc1
cat: criterion met
//
compound: C(=C\c1ccccc1)/C=N/c1nc2cc3sc(/N=C/C=C/c4ccccc4)nc3cc2s1
cat: criterion met
//
compound: O=c1[nH]c(=O)n(Cc2ccccc2CO)cc1Sc1ccccc1
cat: criterion met
//
compound: CC(CO)C1C[C@H](O)[C@@]2(C)CC(=O)C=C(CO)[C@@H]2C1 (stereo partly specified)
cat: criterion met
//
compound: C#Cc1c(C(N)=O)ncn1C1OC(COP(=O)(OCc2ccc([N+](=O)[O-])o2)N(C)CCCCCl)C(O)C1O (stereo unspecified)
cat: criterion met
//
compound: CN(C)Cc1cc(O)c(O)c(CN(C)C)c1
cat: criterion met
//
compound: COc1cccc(N(CN2CC=CC2=O)C(C)=O)c1
cat: criterion met
//
compound: COc1ccc(Cl)cc1NC(=O)C(Br)C(Br)C(=O)O (stereo unspecified)
cat: criterion met
//
compound: CCCCCCCCCCCCSC(=N)N
cat: criterion not met
//
compound: Cc1ccc2c(O)c(O)cc(NC(C)CCCN)c2n1 (stereo unspecified)
cat: criterion met
//
compound: O=C(Nc1ccc(Cl)cc1)c1cc(-c2ccc(Cl)cc2)c2sc(=O)[nH]c2n1
cat: criterion not met
//
compound: COc1ccc(/C=C\c2cc(OC)c(OC)c(OC)c2)cc1OC(=O)CCC(=O)O
cat: criterion not met
//
compound: COC(=O)c1cc(C#N)[nH]c1-c1ccc(C)s1
cat: criterion met
